biological target: RIOK1A (Homo sapiens); construct: purchased in-house DSF kinase panel (SGC-style construct names; the trailing letter is the construct ID); experiment: DSF Tm panel; assay type: binding; settings: 10 μM compound
Sequence (Q9BRS2 143-494): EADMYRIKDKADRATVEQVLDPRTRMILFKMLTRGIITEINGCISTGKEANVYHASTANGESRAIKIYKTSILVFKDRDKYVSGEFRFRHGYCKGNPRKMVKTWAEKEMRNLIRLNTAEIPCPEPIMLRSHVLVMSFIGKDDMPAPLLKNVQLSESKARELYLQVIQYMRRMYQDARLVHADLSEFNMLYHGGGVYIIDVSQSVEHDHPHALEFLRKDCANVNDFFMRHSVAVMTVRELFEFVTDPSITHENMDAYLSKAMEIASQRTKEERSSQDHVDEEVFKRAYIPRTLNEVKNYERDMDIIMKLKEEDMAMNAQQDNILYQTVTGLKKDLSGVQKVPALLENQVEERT
experimental endpoint: ΔTm at 10 µM (°C)

[I] Cc1cc(Cl)ccc1CNC(=O)Nc1ccc2cc1OCCOCCNc1ccn3ncc-2c3n1 [compound 23]
[II] O=C(NCc1ccc(Cl)cc1Cl)Nc1ccc2cc1OCCOCCNc1ccn3ncc-2c3n1 [compound 20]
[III] O=C(NCc1ccc(Cl)cc1)Nc1ccc2cc1OCCOCCNc1ccn3ncc-2c3n1 [compound 19]
[IV] O=C(NCc1ccccc1)Nc1ccc2cc1OCCOCCNc1ccn3ncc-2c3n1 [compound 16]
[V] O=C(NCc1ccc(Cl)cc1F)Nc1ccc2cc1OCCOCCNc1ccn3ncc-2c3n1 [compound 21]
[ask] Sort key: ΔTm at 10 µM. Order: high to low. Scope: items listed above. Labels, ranked as asked.
[reply] II, III, I, IV, V
(II: 1.9 °C, III: 1.1 °C, I: 0.6 °C, IV: 0.1 °C, V: -0.1 °C)

[A] O=C(NCc1ccccc1Cl)Nc1ccc2cc1OCCOCCNc1ccn3ncc-2c3n1 [compound 17]
[B] O=C(NCc1cccc(Cl)c1)Nc1ccc2cc1OCCOCCNc1ccn3ncc-2c3n1 [compound 18]
[ask] // which entry reports the smaller ΔTm at 10 µM, A or B ? Returns: label corresponding to the selected item.
[reply] A
